# reported pKi; entries follow
# Target Desc: Neutrophil collagenase (Homo sapiens, UniProt P22894)
# Sequence (P22894 whole entry): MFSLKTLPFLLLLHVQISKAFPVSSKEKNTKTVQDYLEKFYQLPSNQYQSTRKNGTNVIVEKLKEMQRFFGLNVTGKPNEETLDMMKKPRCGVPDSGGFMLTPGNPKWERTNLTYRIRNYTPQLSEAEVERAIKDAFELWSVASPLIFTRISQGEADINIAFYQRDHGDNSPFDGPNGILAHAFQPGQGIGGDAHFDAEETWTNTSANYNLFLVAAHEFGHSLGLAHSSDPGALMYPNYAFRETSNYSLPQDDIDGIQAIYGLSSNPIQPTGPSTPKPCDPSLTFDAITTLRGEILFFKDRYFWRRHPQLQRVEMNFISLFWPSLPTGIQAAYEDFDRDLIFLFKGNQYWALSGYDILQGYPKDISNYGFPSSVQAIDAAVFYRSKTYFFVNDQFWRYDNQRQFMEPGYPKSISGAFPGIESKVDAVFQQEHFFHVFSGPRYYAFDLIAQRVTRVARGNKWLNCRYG
# Assay Procedure: Inhibition of human neutrophil collagenase (Matrix metalloprotease-8)
pKi: −log10 of the molar value.
Value Kind: pKi

INSERT INTO measurements (compound, test_value) VALUES
  ('CC(Cc1ccccc1)(C(=O)NO)C(=O)NCc1ccc(C(=O)O)cc1 (stereo unspecified)', 4.39),
  ('CC(Cc1ccccc1)(C(=O)NO)C(=O)NCCc1ccccc1 (stereo unspecified)', 5.02),
  ('CC(=O)NC(Cc1ccccc1)(C(=O)NO)C(=O)NCc1ccccc1 (stereo unspecified)', 5.64),
  ('CC(Cc1ccccc1)(C(=O)NO)C(=O)Nc1ccccc1 (stereo unspecified)', 4.36),
  ('CC(Cc1ccccc1)(C(=O)NO)C(=O)N1CCc2ccccc2C1 (stereo unspecified)', 5.09),
  ('O=C(NO)C1(C(=O)NCCCc2ccccc2)Cc2ccccc2-c2ccccc2C1', 5.72),
  ('CC(Cc1ccccc1)(C(=O)NO)C(=O)NCc1ccccc1 (stereo unspecified)', 5.96),
  ('O=C(NO)C1(C(=O)NCc2ccccc2)Cc2ccccc2C1', 5.82),
  ('CCOC(=O)C(C)(CC(C)C)C(=O)NO (stereo unspecified)', 4.39),
  ('O=C(NO)C1(C(=O)NCCCc2ccccc2)Cc2ccccc2C1', 6.52),
  ('CC(Cc1ccccc1)(C(=O)NO)C(=O)Nc1cccc2ccccc12 (stereo unspecified)', 4.35);
